Values from PubChem BioAssay AID306

Would you kindly list T/C for each of these molecules?
Tested on: BDF1 mice, L1210 Methyl-GAG-resistant leukemia, survival T/C
methodNotes: NCI In Vivo Anticancer Drug Screen. Data for tumor model L1210 Leukemia resistant to Methyl-GAG; NSC 32946 (subcutaneous) in B6D2F1 (BDF1) mice
measurementContext: endpoint: mean survival time; dose: 8.0 mg/kg/injection; schedule: Q01DX Z (ip); vehicle: carboxymethylcellulose (CMC); higher = longer survival
Inconclusive results and toxic doses are left out.

Sure, the documented T/C for Cn1cnc([N+](=O)[O-])c1Sc1nc(N)nc2nc[nH]c12 is 88 % of control

Sure, the documented T/C for CCn1cnc2c(=S)nc[nH]c21 is 113 % of control

Sure, the documented T/C for CCCCNc1ncnc2c1cnn2C is 106 % of control

Sure, the documented T/C for OCC1OC(n2cnc3c(=S)nc[nH]c32)C(O)C1O (centres undefined) is 107 % of control
